biological target: AdipoR1 (Homo sapiens, UniProt Q96A54); assay: Measurement of AMPK phosphorylation ability (Assay 2), HEK 293T cells with unrelated or AdipoR1 siRNA; format: cell-based; design: HEK 293T cells (ATCC; CRL-3216, medium; host or cells: HEK 293T; conditions: unrelated siRNA
METRIC: pAMPK/AMPK (ratio) siRNA, unrelated siRNA

O=C(COc1ccc(C(=O)c2ccc(Cl)cc2)cc1)NC1CCN(Cc2ccccc2)CC1 [Compound 11] : 2.58
O=C(NCCC(=O)N1CCN(Cc2cccc(O)c2)CC1)c1ccc2ccccc2c1 [Compound 70] : 2.43
CC(C)(C)c1ccc(C(=O)NCCC(=O)N2CCN(Cc3cccc4cccnc34)CC2)cc1 [Compound 53] : 2.26
CC(c1ccccc1)N1CCC(NC(=O)COc2ccc(Oc3ccccn3)cc2)CC1 (centres unmarked) [Compound 47] : 2.78

(A) CCOc1ccc(OCC(=O)NC2CCN(Cc3ccc(Cl)c(Cl)c3)CC2)cc1 [Compound 38]
(B) O=C(NCCC(=O)N1CCN(Cc2cccc(OC(F)(F)F)c2)CC1)c1ccc([N+](=O)[O-])cc1 [Compound 69]
Input: Of A and B , which shows the smaller pAMPK/AMPK (ratio) siRNA, unrelated siRNA value? Kindly state the label of the option you pick.
Output: A

====

Molecular target: AdipoR1 (Homo sapiens, UniProt Q96A54)
Sequence (Q96A54 1-375): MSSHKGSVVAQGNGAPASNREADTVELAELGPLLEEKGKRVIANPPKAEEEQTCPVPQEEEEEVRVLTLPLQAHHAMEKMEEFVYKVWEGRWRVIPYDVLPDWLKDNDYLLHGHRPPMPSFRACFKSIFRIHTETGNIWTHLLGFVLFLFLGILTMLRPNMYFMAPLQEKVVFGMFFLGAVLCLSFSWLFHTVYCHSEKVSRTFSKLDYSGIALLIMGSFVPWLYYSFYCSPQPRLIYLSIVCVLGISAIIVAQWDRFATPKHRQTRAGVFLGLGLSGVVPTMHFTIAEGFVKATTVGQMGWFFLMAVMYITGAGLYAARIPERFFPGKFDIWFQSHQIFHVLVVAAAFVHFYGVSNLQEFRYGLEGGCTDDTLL
Assay: Measurement of AMPK phosphorylation ability (Assay 1), HEK 293T cells, Western blotting
Assay type: cell-based
Design: HEK 293T cells (ATCC; CRL-3216, medium; host or cells: HEK 293T
Conditions: 25 μM, 10 minutes
METRIC: pAMPK/AMPK (%)

CC1CN(Cc2ccccc2)CCC1NC(=O)COc1ccc(N2CCCC2=O)cc1 (stereo not drawn) : 55.06
Cc1cc(OCC(=O)NC2CCN(C(N)=O)CC2)ccc1C(C)C : 39.02
CCOc1ccc(OCC(=O)NC2CCN(Cc3ccccc3C)CC2)cc1 : 64.98
NC(=O)c1ccc(OCC(=O)NC2CCN(Cc3ccc(Cl)c(Cl)c3)CC2)cc1 : 83.61
O=C(COc1ccc(C(F)(F)F)cc1)NC1CCN(C(=O)c2ccccc2F)CC1 : 80.64
CC(C)(C)c1ccc(C(=O)NCCC(=O)N2CCN(Cc3cccc(O)c3)CC2)cc1 : 66.63

(a) O=C(COc1ccc(F)cc1)NC1CCN(Cc2ccc(Cl)c(Cl)c2)CC1
(b) COc1ccccc1CN1CCC(NC(=O)COc2ccc(C)cc2)CC1
(c) CC(C)(C)c1ccc(OCC(=O)NC2CCN(Cc3ccc(F)cc3)CC2)cc1
Input: Ascending sort, pAMPK/AMPK (%). Answer by writing out the labels in the requested order.
Output: c, b, a
